testSystem: Tyrosine-protein kinase Fyn (Homo sapiens); note: in the data inactive means no Kd found up to 30 µM
Sequence (P06241 whole entry): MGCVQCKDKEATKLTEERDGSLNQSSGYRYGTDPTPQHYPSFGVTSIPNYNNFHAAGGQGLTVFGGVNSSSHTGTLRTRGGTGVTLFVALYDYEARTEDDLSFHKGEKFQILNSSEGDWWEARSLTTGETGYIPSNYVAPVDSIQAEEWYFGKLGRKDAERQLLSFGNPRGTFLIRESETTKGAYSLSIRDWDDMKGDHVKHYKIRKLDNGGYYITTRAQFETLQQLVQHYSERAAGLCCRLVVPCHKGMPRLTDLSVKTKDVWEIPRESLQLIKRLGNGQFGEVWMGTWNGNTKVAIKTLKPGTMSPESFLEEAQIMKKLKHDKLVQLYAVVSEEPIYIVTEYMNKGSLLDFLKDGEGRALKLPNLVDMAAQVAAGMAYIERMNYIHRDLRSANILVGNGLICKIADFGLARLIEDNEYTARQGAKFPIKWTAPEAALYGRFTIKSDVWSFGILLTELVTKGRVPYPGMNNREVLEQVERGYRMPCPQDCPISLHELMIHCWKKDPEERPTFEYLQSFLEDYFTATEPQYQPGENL
Calls of active or inactive are those of the source.
observedProperty: Kd

{"compound": "COC(=O)[C@@]1(O)C[C@H]2O[C@]1(C)n1c3ccccc3c3c4c(c5c6ccccc6n2c5c31)C(=O)NC4 [K-252A]", "valueReported": "> 30 µM (inactive)"}

# return Kd for CCCS(=O)(=O)Nc1ccc(F)c(C(=O)c2c[nH]c3ncc(-c4ccc(Cl)cc4)cc23)c1F [VEMURAFENIB] , test system: Tyrosine-protein kinase Fyn (Homo sapiens) > 30 µM (inactive)

# return Kd for CCN1CCN(Cc2ccc(-c3cc4c(N[C@H](C)c5ccccc5)ncnc4[nH]3)cc2)CC1 [AEE-788] , test system: Tyrosine-protein kinase Fyn (Homo sapiens) > 30 µM (inactive)

# return Kd for Cn1cc(-c2ccc3nnc(C(F)(F)c4ccc5ncccc5c4)n3n2)cn1 [JNJ-38877605] , test system: Tyrosine-protein kinase Fyn (Homo sapiens) > 30 µM (inactive)

###

testSystem: Serine/threonine-protein kinase PLK4 (Homo sapiens, UniProt O00444); note: in the data inactive means no Kd found up to 30 µM
Sequence (O00444 whole entry): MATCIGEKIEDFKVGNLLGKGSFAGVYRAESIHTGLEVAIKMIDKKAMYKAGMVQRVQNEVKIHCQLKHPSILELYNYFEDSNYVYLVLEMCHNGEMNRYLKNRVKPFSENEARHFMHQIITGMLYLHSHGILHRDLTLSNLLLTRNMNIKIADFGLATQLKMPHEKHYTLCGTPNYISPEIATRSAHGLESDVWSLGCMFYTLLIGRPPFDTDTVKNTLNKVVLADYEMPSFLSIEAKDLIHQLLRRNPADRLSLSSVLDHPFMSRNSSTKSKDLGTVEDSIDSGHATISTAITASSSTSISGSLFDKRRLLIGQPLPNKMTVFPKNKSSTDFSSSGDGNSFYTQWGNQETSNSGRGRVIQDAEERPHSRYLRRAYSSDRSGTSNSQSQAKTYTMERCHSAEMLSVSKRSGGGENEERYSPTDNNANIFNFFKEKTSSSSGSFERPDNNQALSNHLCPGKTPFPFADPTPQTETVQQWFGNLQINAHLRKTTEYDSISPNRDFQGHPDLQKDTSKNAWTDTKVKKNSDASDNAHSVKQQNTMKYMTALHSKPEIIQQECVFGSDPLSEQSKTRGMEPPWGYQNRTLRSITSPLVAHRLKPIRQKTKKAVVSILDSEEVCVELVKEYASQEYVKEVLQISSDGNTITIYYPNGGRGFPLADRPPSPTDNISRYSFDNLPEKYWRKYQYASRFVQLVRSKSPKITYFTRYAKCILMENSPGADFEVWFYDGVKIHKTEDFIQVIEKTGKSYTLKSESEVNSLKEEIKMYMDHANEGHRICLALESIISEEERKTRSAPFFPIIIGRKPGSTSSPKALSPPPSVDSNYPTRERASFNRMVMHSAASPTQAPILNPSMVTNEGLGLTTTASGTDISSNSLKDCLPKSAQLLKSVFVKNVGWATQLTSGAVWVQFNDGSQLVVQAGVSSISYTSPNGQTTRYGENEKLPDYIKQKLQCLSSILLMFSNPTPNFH
The source made the active and inactive calls.
Please state which outcome applies, choosing from y for active, n for inactive

Below, 5 compounds whose answers are already recorded.
{"compound": "Cc1ccc(S(=O)(=O)Nc2nc3ccccc3nc2Nc2ccc3nsnc3c2)cc1", "testSystem": "Serine/threonine-protein kinase PLK4 (Homo sapiens, UniProt O00444)", "assignedLabel": "n"}
{"compound": "CN1CC[C@@H](c2c(O)cc(O)c3c(=O)cc(-c4ccccc4Cl)oc23)[C@@H]1CO", "testSystem": "Serine/threonine-protein kinase PLK4 (Homo sapiens, UniProt O00444)", "assignedLabel": "n"}
{"compound": "CC(C)Nc1cc(-c2c[nH]c(C(=O)N[C@H](CO)c3cccc(Cl)c3)c2)c(Cl)cn1 [ULIXERTINIB]", "testSystem": "Serine/threonine-protein kinase PLK4 (Homo sapiens, UniProt O00444)", "assignedLabel": "n"}
{"compound": "COC(=O)N[C@@H](C)CNc1nccc(-c2cn(C(C)C)nc2-c2cc(Cl)cc(NS(C)(=O)=O)c2F)n1 [ENCORAFENIB]", "testSystem": "Serine/threonine-protein kinase PLK4 (Homo sapiens, UniProt O00444)", "assignedLabel": "n"}
{"compound": "O=C(O)[C@]1(Cc2cccc(Nc3nccs3)n2)CC[C@@H](Oc2cccc(Cl)c2F)CC1 [MK-5108]", "testSystem": "Serine/threonine-protein kinase PLK4 (Homo sapiens, UniProt O00444)", "assignedLabel": "y"}

Next up:
Record request — test call for CNC(=O)c1ccc(C)c(-n2c(C)cc(OCc3ccc(F)cc3F)c(Br)c2=O)c1 [PH-797804] n

###

Listed here: compounds with reported Kd for AarF domain-containing protein kinase 1 (Homo sapiens, UniProt Q86TW2).
Calls of active or inactive are those of the source.

{"compound": "CN1N=C(N)c2cn([C@@H]3O[C@H](COP(=O)(O)O)[C@@H](O)[C@H]3O)c3ncnc1c23 [TRICIRIBINE PHOSPHATE]", "testSystem": "AarF domain-containing protein kinase 1 (Homo sapiens, UniProt Q86TW2)", "Kd": "> 30 µM (inactive)"}
{"compound": "COc1cc(OC)c(/C=C/S(=O)(=O)Cc2ccc(OC)c(NCC(=O)O)c2)c(OC)c1 [RIGOSERTIB]", "testSystem": "AarF domain-containing protein kinase 1 (Homo sapiens, UniProt Q86TW2)", "Kd": "> 30 µM (inactive)"}
{"compound": "O=C(O)[C@]1(Cc2cccc(Nc3nccs3)n2)CC[C@@H](Oc2cccc(Cl)c2F)CC1 [MK-5108]", "testSystem": "AarF domain-containing protein kinase 1 (Homo sapiens, UniProt Q86TW2)", "Kd": "> 30 µM (inactive)"}
{"compound": "O=c1sn(-c2cccc3ccccc23)c(=O)n1Cc1ccccc1 [TIDEGLUSIB]", "testSystem": "AarF domain-containing protein kinase 1 (Homo sapiens, UniProt Q86TW2)", "Kd": "> 30 µM (inactive)"}
{"compound": "CN1CCC(COc2cnc(-c3cccc(Cn4nc(-c5cccc(C#N)c5)ccc4=O)c3)nc2)CC1 [TEPOTINIB]", "testSystem": "AarF domain-containing protein kinase 1 (Homo sapiens, UniProt Q86TW2)", "Kd": "> 30 µM (inactive)"}

# return Kd for CNC(=O)c1cc(Oc2ccc(NC(=O)Nc3ccc(Cl)c(C(F)(F)F)c3)c(F)c2)ccn1 [REGORAFENIB] , test system: AarF domain-containing protein kinase 1 (Homo sapiens, UniProt Q86TW2) > 30 µM (inactive)

# return Kd for Cc1ccc(NC(=O)c2ccc(CN3CC[C@H](N(C)C)C3)c(C(F)(F)F)c2)cc1Nc1nccc(-c2cncnc2)n1 [BAFETINIB] , test system: AarF domain-containing protein kinase 1 (Homo sapiens, UniProt Q86TW2) > 30 µM (inactive)

# return Kd for OCCn1cc(-c2cnc3nnn(Cc4ccc5ncccc5c4)c3n2)cn1 [PF-04217903] , test system: AarF domain-containing protein kinase 1 (Homo sapiens, UniProt Q86TW2) > 30 µM (inactive)
